assay.summary: Clearance in cynomolgus monkey at 0.5 mg/kg, iv and 3 mg/kg, po
Assay type: ADME, organism-based, Macaca fascicularis
condition: in vivo
property: clearance (mL/min/kg)
Please reply with the bare figure in mL/min/kg and do not write the unit itself.

Enquiry: clearance lookup needed for Cc1cnc(NC(=O)c2cc(Oc3cnc(C(=O)N(C)C)nc3)c3cc(C)oc3c2)cn1 [NERIGLIATIN] , thanks.
Return: 9.4

====

assay.summary: Clearance in Beagle dog at 0.5 mg/kg, iv and 5 mg/kg, po
Format: ADME, organism-based, Canis lupus familiaris
condition: in vivo
property: clearance (mL/min/kg)
Please reply with the bare figure in mL/min/kg and do not write the unit itself.

Enquiry: clearance lookup needed for Cc1cnc(NC(=O)c2cc(Oc3cnc(C(=O)N(C)C)nc3)c3cc(C)oc3c2)cn1 [NERIGLIATIN] , thanks.
Return: 2.6

// data source = ChEMBL document CHEMBL3217627
